Where do the numbers come from? From patent US20250215029A1.

Molecular target: pY641-STAT6 in PBMC (Homo sapiens, UniProt P42226)
Construct: Cryopreserved Peripheral Blood Mononuclear Cells (PBMC) are from AllCells; host or cells: cryopreserved PBMC
Sequence (P42226 whole entry): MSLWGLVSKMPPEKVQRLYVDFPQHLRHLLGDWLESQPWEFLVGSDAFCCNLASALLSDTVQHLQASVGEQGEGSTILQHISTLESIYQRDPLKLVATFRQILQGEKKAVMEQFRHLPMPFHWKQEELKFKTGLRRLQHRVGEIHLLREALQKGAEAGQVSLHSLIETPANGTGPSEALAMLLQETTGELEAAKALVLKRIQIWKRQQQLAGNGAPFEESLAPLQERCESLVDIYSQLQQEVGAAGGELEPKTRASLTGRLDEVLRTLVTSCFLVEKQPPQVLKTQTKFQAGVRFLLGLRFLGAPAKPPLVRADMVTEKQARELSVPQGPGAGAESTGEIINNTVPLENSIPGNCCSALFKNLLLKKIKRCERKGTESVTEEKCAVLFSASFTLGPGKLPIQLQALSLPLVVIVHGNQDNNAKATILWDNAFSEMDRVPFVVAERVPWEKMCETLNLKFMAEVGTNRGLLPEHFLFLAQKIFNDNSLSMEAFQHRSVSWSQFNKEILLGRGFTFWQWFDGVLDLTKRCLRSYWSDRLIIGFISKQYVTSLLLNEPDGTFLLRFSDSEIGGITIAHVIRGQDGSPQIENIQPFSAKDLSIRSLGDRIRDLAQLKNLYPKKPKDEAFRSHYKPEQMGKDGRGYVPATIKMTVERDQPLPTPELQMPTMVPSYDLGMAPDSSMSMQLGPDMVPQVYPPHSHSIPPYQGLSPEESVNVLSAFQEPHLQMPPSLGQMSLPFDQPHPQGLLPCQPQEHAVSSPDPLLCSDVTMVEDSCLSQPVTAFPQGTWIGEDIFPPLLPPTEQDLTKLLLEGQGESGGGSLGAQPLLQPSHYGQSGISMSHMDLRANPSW
Assay: MSD-pSTAT-PBMC Assay (pSTAT6, IL-4 stimulated)
Type: cell-based
Conditions: STAT6, PBMC, compound 3 hrs, then 1 ng/mL IL-4 for 10 min; Table 115
pIC50: −log10 of the molar value.
VALUE_KIND: pIC50

## Input What pIC50 appears in the records for this molecule with pY641-STAT6 in PBMC (Homo sapiens, UniProt P42226)? C[C@H](NP(=O)(Oc1ccccc1)[C@@H](F)c1ccc2sc(C(=O)N[C@H]3CCC[C@H]4CC[C@@H](C(=O)N5C[C@@H](c6cccnc6)CC56CC6)N4C3=O)cc2c1)C(=O)OCc1cccnn1 (stereo partly drawn)
## Output 6.00 to 7.00

## Input Okay, and CCCOC(=O)[C@H](C)NP(=O)(Oc1ccccc1)[C@@H](F)c1ccc2sc(C(=O)N[C@H]3CCC[C@H]4CC[C@@H](C(=O)N5C[C@H](c6cncc(Cl)c6)[C@@H](C#N)C56CC6)N4C3=O)cc2c1 (single isomer, unassigned) [Compound 368] ?
## Output < 5.52

## Input Cool, now CCCOC(=O)[C@H](C)NP(=O)(Oc1ccccc1)C(F)c1ccc2sc(C(=O)N[C@H]3CCCC[C@H]4CC[C@@H](C(=O)N5C[C@@H](C#N)[C@H](c6ccn(C)c(=O)c6)C5)N4C3=O)cc2c1 (single isomer, unassigned) [Compound 318]
## Output < 5.52

## Input Next molecule: CCCOC(=O)[C@H](C)NP(=O)(Oc1ccccc1)[C@@H](F)c1ccc2sc(C(=O)N[C@H]3CCCC[C@H]4CC[C@@H](C(=O)N5C[C@H](c6ccccc6)[C@@H](C#N)C56CC6)N4C3=O)cc2c1 (stereo partly drawn)
## Output > 7.00

## Input Would you mind doing CCCOC(=O)[C@H](C)NP(=O)(Cc1ccc2sc(C(=O)N[C@H]3CCCC[C@H]4CC[C@@H](C(=O)N5C[C@@H](c6cccnc6)CC56CC6)N4C3=O)cc2c1)Oc1ccccc1 (stereo partly drawn) as well?
## Output > 7.00

## Input Also, CCCOC(=O)[C@H](C)NP(=O)(Oc1ccccc1)C(F)c1ccc2sc(C(=O)N[C@H]3CCC[C@H]4CC[C@@H](C(=O)N5CC(c6cnccc6OC)C5)N4C3=O)cc2c1 (stereo partly drawn) please.
## Output < 5.52

## Input And CCCOC(=O)[C@H](C)NP(=O)(Cc1ccc2sc(C(=O)N[C@H]3CCC[C@H]4CC[C@@H](C(=O)N5CC(c6cnccc6N(C)C)C5)N4C3=O)cc2c1)Oc1ccccc1 (stereo partly drawn) ?
## Output < 5.52

## Input Next: C[C@H](NP(=O)(Oc1ccccc1)[C@@H](F)c1ccc2sc(C(=O)N[C@H]3CCCC[C@H]4CC[C@@H](C(=O)N5C[C@@H](c6cccnc6)CC56CC6)N4C3=O)cc2c1)C(=O)OCc1ccccc1 (stereo partly drawn)
## Output > 7.00

## Input Please give the result for CCCOC(=O)[C@H](C)NP(=O)(Oc1ccccc1)C(F)c1ccc2sc(C(=O)N[C@H]3CCCC[C@H]4CC[C@@H](C(=O)N5C(=O)N(c6ccn(C(C)C)c(=O)c6)C(=O)C56CC6)N4C3=O)cc2c1 (stereo partly drawn) too.
## Output < 5.52
